Below, each entry is listed with its recorded kon.
Target: T1, His-tagged human TIGIT (human, UniProt Q495A1 22-141)
T1 construct: SPR analyte; also called human TIGIT protein; not shown: His tag
T1 sequence: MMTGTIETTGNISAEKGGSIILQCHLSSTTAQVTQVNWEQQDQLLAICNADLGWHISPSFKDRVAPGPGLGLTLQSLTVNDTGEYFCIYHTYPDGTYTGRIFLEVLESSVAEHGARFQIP
Test: SPR experiment 3, IgG from HEK293 supernatant captured
Give the value in M⁻¹ s⁻¹ but do not write M⁻¹ s⁻¹ after it.

Look over these answered cases.
Given item reshaped TIGIT-3 antibody 3VH3 + 3VL1.M1 (antibody, V domains shown, Full-length IgG, tested as HEK293 supernatant) VH: EVQLVESGGGLVQPGGSLRLSCAASGFTFSSYGMSWVRQAPGKGLELVATIKSDGGSTNLPDSVKGRFTISRDNSKNTLYLQMNSLRAEDTAVYYCVRGYFDYWGQGTTVTVSS VL: DIQMTQSPSSLSASVGDRVTITCRASQDIKTALAWYQQKPGKVPKLLIYWSSTRHTGVPSRFSGSGSGTDFTLTISSLQPEDVATYYCQQYYSTPYTFGGGTKVEIK , the value recorded as its kon is 230000

Given item reshaped TIGIT-3 antibody 3VH3 + 3VL1.M4 (antibody, V domains shown, Full-length IgG, tested as HEK293 supernatant) VH: EVQLVESGGGLVQPGGSLRLSCAASGFTFSSYGMSWVRQAPGKGLELVATIKSDGGSTNLPDSVKGRFTISRDNSKNTLYLQMNSLRAEDTAVYYCVRGYFDYWGQGTTVTVSS VL: DIQMTQSPSSLSASVGDRVTITCKASQDVKTAVAWYQQKPGKVPKLLIYWASTRQSGVPSRFSGSGSGTDFTLTISSLQPEDVATYYCQQYYSTPYTFGGGTKVEIK , the value recorded as its kon is 230000

Note: attention shifts to another entry.
Given item reshaped TIGIT-3 antibody 3VH3 + 3VL1 (antibody, V domains shown, Full-length IgG, tested as HEK293 supernatant) VH: EVQLVESGGGLVQPGGSLRLSCAASGFTFSSYGMSWVRQAPGKGLELVATIKSDGGSTNLPDSVKGRFTISRDNSKNTLYLQMNSLRAEDTAVYYCVRGYFDYWGQGTTVTVSS VL: DIQMTQSPSSLSASVGDRVTITCKASQDVKTAVAWYQQKPGKVPKLLIYWSSTRHTGVPSRFSGSGSGTDFTLTISSLQPEDVATYYCQQYYSTPYTFGGGTKVEIK , the value recorded as its kon is 210000
